The entries below are paired with their reported koff.
TESTED SYSTEM: T1, human Trop-2-His protein (human, UniProt P09758 27-274)
T1 construct: extracellular domain; Assay paragraphs say only 'Trop-2-His'; also called hTrop-2; Kactus Cat #TRP-HM121; not shown: His tag
T1 sequence (looked up): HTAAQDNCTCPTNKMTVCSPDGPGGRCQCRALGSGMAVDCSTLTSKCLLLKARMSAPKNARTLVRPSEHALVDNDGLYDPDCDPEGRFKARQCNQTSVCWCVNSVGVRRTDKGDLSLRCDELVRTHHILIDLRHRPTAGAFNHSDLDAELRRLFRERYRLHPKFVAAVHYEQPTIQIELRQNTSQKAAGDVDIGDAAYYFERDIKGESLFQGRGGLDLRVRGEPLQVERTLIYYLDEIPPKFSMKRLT
EXPERIMENT: BLI (Gator Prime), LEM supernatant Ab on HFC probe
Express your answer in s⁻¹, writing the number without its unit.

Known results for binders:
{"BINDER": "65D5 (antibody, V domains shown, Rabbit-derived clone; LEM construct: VH + rabbit IgG CH1 + human IgG1 CH2-CH3) VH: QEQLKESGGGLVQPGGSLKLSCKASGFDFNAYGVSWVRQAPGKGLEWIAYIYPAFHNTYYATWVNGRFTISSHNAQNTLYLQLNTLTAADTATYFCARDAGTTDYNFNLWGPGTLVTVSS VL: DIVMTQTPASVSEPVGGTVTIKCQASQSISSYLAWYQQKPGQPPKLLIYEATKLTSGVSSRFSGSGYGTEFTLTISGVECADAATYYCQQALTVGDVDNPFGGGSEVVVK", "koff [s⁻¹]": 0.00046}
{"BINDER": "63H3 (antibody, V domains shown, Rabbit-derived clone; LEM construct: VH + rabbit IgG CH1 + human IgG1 CH2-CH3) VH: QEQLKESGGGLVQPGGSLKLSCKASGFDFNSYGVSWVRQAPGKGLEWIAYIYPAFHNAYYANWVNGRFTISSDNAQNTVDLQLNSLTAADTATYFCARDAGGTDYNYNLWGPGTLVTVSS VL: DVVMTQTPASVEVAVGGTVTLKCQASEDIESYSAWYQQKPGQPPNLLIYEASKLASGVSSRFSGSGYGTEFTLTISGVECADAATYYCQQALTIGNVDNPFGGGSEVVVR", "koff [s⁻¹]": 0.00016}
{"BINDER": "12G6 (antibody, V domains shown, Rabbit-derived clone; LEM construct: VH + rabbit IgG CH1 + human IgG1 CH2-CH3) VH: QEQLKESGGGLVQPGGSLTLSCKASGFDFNNYGVSWVRQAPGKGLEWIGYIYPAYHNTYYATWVNGRFTISSHNAQNTLYLQLNTLTAADTATYFCARDAGNTDYNFNLWGPGTLVTVSS VL: DVVMTQTPASVEVAVGGTVTIKCQASEDIESYLAWYQQKPGQPPKLLIYEASKLASGVSSRFSGGGYGTEFTLTISGVECADAATYYCQQALTIGNVDNPFGGGSEVVVK", "koff [s⁻¹]": 0.00047}
{"BINDER": "9A5 (antibody, V domains shown, Rabbit-derived clone; LEM construct: VH + rabbit IgG CH1 + human IgG1 CH2-CH3) VH: QEQLKESGGGLVQPGGSLTLSCKASGFDFNNYGVSWVRQAPGKGLEWIAYIYPTYHNTYYATWVNGRFTISSHNAQNTLYLQLNTLTAADTATYFCARDAGGTDYNFNLWGPGTLVTVSS VL: DVVMTQTPASVEAAVGGTVTINCQASQSIESYLAWYQQKPGQPPKLLIYEASKLASGVSSRFSGGGYGTEFTLTISGVECADAATYYCQQALTIGNVDNPFGGGSEVVVK", "koff [s⁻¹]": 0.00041}

Alright, here's another binder for you.
Fill in reported koff for this entry: 2H3 (antibody, V domains shown, Rabbit-derived clone; LEM construct: VH + rabbit IgG CH1 + human IgG1 CH2-CH3) VH: QEQLKESGGGLGQPGGSLTLSCKASGFDFNNYGVSWVRQAPGKGLEWIGYIYPAYHNTYYATWVNGRFTISSHNAQNTLYLQLNTLTAADTATYFCARDTGTTDYNFNLWGPGTLVTVSS VL: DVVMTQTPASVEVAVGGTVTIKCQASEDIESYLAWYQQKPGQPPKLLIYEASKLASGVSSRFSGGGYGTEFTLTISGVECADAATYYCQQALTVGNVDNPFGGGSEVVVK
0.00013
